Provide the recorded % residual compound, % R3 for the entries that follow.
target: bovine spleen Cathepsin B (Bos taurus, UniProt P07688); construct: bovine spleen Cathepsin B (SigmaAldrich C6286, ≥10 units/mg protein); purchased SigmaAldrich C6286; host or cells: bovine spleen (tissue-derived); test: Cathepsin B cleavage assay (UHPLC-HRMS Orbitrap analysis); format: biochemical; conditions: replicate R3, 15 min
Excerpt: […]
Starred links: 1 amine or outer side, 2 acyl side, 3 side chain; linkers in the order of their positions; H or OH if unused. Non-standard residues stand in square brackets, D forms with d. Residues, ends and D or L forms follow the SMILES beside them. *: point of attachment. Paclitaxel(2'-OCO-DMEDA) = CC(=O)O[C@H]1C(=O)[C@@]2(C)[C@H]([C@H](OC(=O)c3ccccc3)[C@]3(O)C[C@H](OC(=O)[C@H](OC(=O)N(C)CCN(C)*)[C@@H](NC(=O)c4ccccc4)c4ccccc4)C(C)=C1C3(C)C)[C@]1(OC(C)=O)CO[C@@H]1C[C@@H]2O; Fmoc = O=C(OCC1c2ccccc2-c2ccccc21)*; PABC = O=C(OCc1ccc(N[*:1])cc1)[*:2]
All answers are understood in %, so give the number only.

Task: Form field - read-out: % residual compound, % R3; system: bovine spleen Cathepsin B (Bos taurus, UniProt P07688); submitted item: CC(=O)O[C@H]1C(=O)[C@@]2(C)[C@H]([C@H](OC(=O)c3ccccc3)[C@]3(O)C[C@H](OC(=O)[C@H](OC(=O)N(C)CCN(C)C(=O)OCc4ccc(NC(=O)CNC(=O)[C@H](CC(C)C)NC(=O)[C@H](Cc5ccccc5)NC(=O)CNC(=O)OCC5c6ccccc6-c6ccccc65)cc4)[C@@H](NC(=O)c4ccccc4)c4ccccc4)C(C)=C1C3(C)C)[C@]1(OC(C)=O)CO[C@@H]1C[C@@H]2O [Compound 2, Fmoc-GFLG-PABC-diamine-PTX] (Fmoc-GFLG[PABC]-{Paclitaxel(2'-OCO-DMEDA)})
Output: 102.02

Task: Param item: CC(=O)O[C@H]1C(=O)[C@@]2(C)[C@H]([C@H](OC(=O)c3ccccc3)[C@]3(O)C[C@H](OC(=O)[C@H](OC(=O)N(C)CCN(C)C(=O)OCc4ccc(NC(=O)[C@H](CCCNC(N)=O)NC(=O)[C@@H](NC(=O)OCC5c6ccccc6-c6ccccc65)C(C)C)cc4)[C@@H](NC(=O)c4ccccc4)c4ccccc4)C(C)=C1C3(C)C)[C@]1(OC(C)=O)CO[C@@H]1C[C@@H]2O
Output: 90.55

Task: # iterate: CC(=O)O[C@H]1C(=O)[C@@]2(C)[C@H]([C@H](OC(=O)c3ccccc3)[C@]3(O)C[C@H](OC(=O)[C@H](OC(=O)N(C)CCN(C)C(=O)OCc4ccc(NC(=O)[C@H](C)NC(=O)[C@@H](NC(=O)OCC5c6ccccc6-c6ccccc65)C(C)C)cc4)[C@@H](NC(=O)c4ccccc4)c4ccccc4)C(C)=C1C3(C)C)[C@]1(OC(C)=O)CO[C@@H]1C[C@@H]2O
Output: 83.72

Task: Further, for CC(=O)O[C@H]1C(=O)[C@@]2(C)[C@H]([C@H](OC(=O)c3ccccc3)[C@]3(O)C[C@H](OC(=O)[C@H](OC(=O)N(C)CCN(C)C(=O)OCc4ccc(NC(=O)CNC(=O)[C@H](CC(C)C)NC(=O)[C@@H]5CCCN5C(=O)CNC(=O)OCC5c6ccccc6-c6ccccc65)cc4)[C@@H](NC(=O)c4ccccc4)c4ccccc4)C(C)=C1C3(C)C)[C@]1(OC(C)=O)CO[C@@H]1C[C@@H]2O [Compound 1, Fmoc-GPLG-PABC-diamine-PTX] (Fmoc-GPLG[PABC]-{Paclitaxel(2'-OCO-DMEDA)}) ?
Output: 78.25
